assay: optical density change of DRC41 E. coli – strain DRC41, OD650, 24 h, E. coli filamentation project, primary screen (AID 1093);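 also: MC1000 strain lacking acrAB efflux and sulA so SOS filamentation is blocked; test concentration not given here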; settings: E. coli DRC41 growth, higher = more signal, called active from +8 up or from −8 down
value kind: z-score
Numbers only.

Quick request: z-score for each listed item, please.
1. Cc1ccccc1C(O)C1C=CC2C(=O)N(Cc3ccccc3)C(=O)C2N1n1cnnc1 (configuration not stated)
2. COC(=O)C(CC#Cc1ccc2c(c1)[C@]1(C(=O)N2)[C@H](c2ccc(O)cc2)N2[C@H](c3ccccc3)[C@H](c3ccccc3)OC(=O)[C@H]2[C@@H]1C(=O)O)C(=O)OC
3. CC(C)CNC(=O)[C@@]1(C)c2ccccc2C(=O)N(Cc2ccccc2)[C@H]1c1ccc(CO)cc1
4. CN(C)C(=O)[C@@]1(Cc2ccccc2N=[N+]=[N-])N=C(c2ccc(OCCCO)cc2)O[C@H]1c1ccccc1N=[N+]=[N-]
5. [N-]=[N+]=Nc1ccccc1C[C@]1(C(=O)NCCN2CCOCC2)N=C(c2ccc(OCCCO)cc2)O[C@H]1c1ccccc1N=[N+]=[N-]
6. C[C@]12C(=O)N(CCCCCO)[C@@H]3C(=O)N(c4ccc(Cl)cc4)CC=CC31O[C@@H]1/C=C\CCCOC(=O)C12 (some centres not stated)
7. CCOC(=O)C[C@H]1[C@H](OC(=O)Cc2ccc3c(c2)OCO3)[C@@H](NC(=O)c2ccccc2)c2cc(OCCCO)ccc2N1C(=O)c1ccccc1
8. C=CCOC(=O)[C@H]1[C@@H]2C(=O)O[C@@H](c3ccccc3)[C@@H](c3ccccc3)N2[C@@H](c2ccc(OCCOC(=O)[C@H]3C[C@H]4C(=O)N[C@@H](CCCCN(C)C)C(=O)N4[C@H]3c3ccc(O)cc3)cc2)[C@]12C(=O)Nc1ccccc12

[-0.0518, -1.28, -0.483, 0.239, 0.683, -1.25, 1.48, -0.296]

Give measured z-score for every item shown.
1. COc1cc2c(cc1OC)CN(C(=O)[C@@H]1[C@H]3C(=O)O[C@H](c4ccccc4)[C@H](c4ccccc4)N3[C@H](c3ccc(OCCO)cc3)[C@@]13C(=O)Nc1ccc(C#CCCO)cc13)CC2
2. COc1ccc([Si](C)(C)[C@@H]2[C@@H](CCO)O[C@]3(C(=O)N(Cc4ccccc4)c4ccc(N5C(=O)COc6ccccc65)cc43)[C@H]2C)cc1
3. CCCC=C(CCC)[C@@H](NC(=O)Cc1ccccc1)c1ccc(C(=O)OC)cc1
4. CC(C)CNC(=O)[C@@]1(c2ccc([N+](=O)[O-])cc2)CC(=O)N(C(C)C)[C@@H]1c1ccc(CO)cc1
5. COc1ccc([Si](C)(C)[C@H]2[C@H](CC(=O)N3CCC[C@H]3CO)O[C@@]3(C(=O)N(Cc4ccc(N5C(=O)c6cccc7cccc5c67)cc4)c4ccccc43)[C@@H]2C)cc1
6. COc1ccc([Si](C)(C)[C@H]2[C@H](CCO)O[C@@]3(C(=O)N(Cc4cccc(N5CCOC5=O)c4)c4ccccc43)[C@@H]2C)cc1
7. COC(=O)[C@@]1(Cc2ccc(OC)cc2)[C@H]2c3cc(C(=O)N4CCCC4)n(Cc4ccc(C)o4)c3C[C@H]2CN1C(=O)c1ccccc1
8. CCN(CC)c1ccc(N2CC=CC34O[C@@H]5/C=C\CCCOC(=O)C5[C@H]3C(=O)N(CCCCCO)[C@@H]4C2=O)cc1 (some centres not stated)

2
2.61
-0.556
0.738
0.965
0.228
-0.715
-0.838

Quick request: z-score for each listed item, please.
1. CCCNC(=O)[C@@]1(Sc2ccc(C)cc2)CC(=O)N(Cc2ccccc2)[C@@H]1c1ccc(CO)cc1I
2. COCCOC(=O)N1C(=O)[C@@]2(c3cc(C#CCCO)ccc31)[C@H](c1ccc(OCCO)cc1)N1[C@H](c3ccccc3)[C@H](c3ccccc3)OC(=O)[C@H]1[C@@H]2C(=O)N1CCc2cc(OC)c(OC)cc2C1
3. CN(C)C(=O)[C@@]1(CCC(=O)OC(C)(C)C)COC(c2ccc(OCCCO)cc2)=N1

[0.605, 0.37, 0.771]

Origin of the recorded values: PubChem BioAssay
